tested on: Plasmodium falciparum clone CDC/Indochina III (W-2); assay: In vitro antimalarial [3H]-hypoxanthine incorporation serial dilution assay, W2; format: cell-based; settings: Plasmodium falciparum, W2, 72 h, P. falciparum W2, parasites exposed for 72 hours
MEASUREMENT_NAME: IC50 (µg/mL)
Return type: number; implicit unit µg/mL.

Which IC50 reading was recorded for the molecule `CC[C@H]1OC(=O)[C@H](C)[C@@H](O[C@H]2C[C@@](C)(OC)[C@@H](O)[C@H](C)O2)[C@H](C)[C@@H](O[C@@H]2O[C@H](C)C[C@H](N(C)C)[C@H]2O)[C@](C)(O)C[C@@H](C)CN(CCCNC(=S)Nc2cccc3ccccc23)[C@H](C)[C@@H](O)[C@]1(C)O` ?
0.17

What about this molecule? `CC[C@H]1OC(=O)[C@H](C)[C@@H](O[C@H]2C[C@@](C)(OC)[C@@H](O)[C@H](C)O2)[C@H](C)[C@@H](O[C@@H]2O[C@H](C)C[C@H](N(C)C)[C@H]2O)[C@](C)(O)C[C@@H](C)CN(CCCN(CCC#N)C(=O)Nc2cccc3ccccc23)[C@H](C)[C@@H](O)[C@]1(C)O`
1.42

Check `CC[C@H]1OC(=O)[C@H](C)[C@@H](O[C@H]2C[C@@](C)(OC)[C@@H](O)[C@H](C)O2)[C@H](C)[C@@H](O[C@@H]2O[C@H](C)C[C@H](N(C)C)[C@H]2O)[C@](C)(O)C[C@@H](C)CN(CCCN(CCC#N)C(=O)Nc2ccc3ccccc3c2)[C@H](C)[C@@H](O)[C@]1(C)O` too.
0.298

What would you report for `CC[C@H]1OC(=O)[C@H](C)[C@@H](O)[C@H](C)[C@@H](O[C@@H]2O[C@H](C)C[C@H](N(C)C)[C@H]2O)[C@](C)(O)C[C@@H](C)CN(CCCNC(=O)Nc2cccc3ccccc23)[C@H](C)[C@@H](O)[C@]1(C)O` ?
0.471

Next record, please: `CC[C@H]1OC(=O)[C@H](C)[C@@H](O[C@H]2C[C@@](C)(OC)[C@@H](O)[C@H](C)O2)[C@H](C)[C@@H](O[C@@H]2O[C@H](C)C[C@H](N(C)C)[C@H]2O)[C@](C)(O)C[C@@H](C)CN(CCCNC(=S)N(CCC#N)CCCc2ccccc2)[C@H](C)[C@@H](O)[C@]1(C)O`
0.0768

Now consider `CC[C@H]1OC(=O)[C@H](C)[C@@H](O[C@H]2C[C@@](C)(OC)[C@@H](O)[C@H](C)O2)[C@H](C)[C@@H](O[C@@H]2O[C@H](C)C[C@H](N(C)C)[C@H]2O)[C@](C)(O)C[C@@H](C)CN(CCCN(CCC#N)C(=O)NCc2ccccc2)[C@H](C)[C@@H](O)[C@]1(C)O` .
0.405

Thanks! And `CC[C@H]1OC(=O)[C@H](C)[C@@H](O[C@H]2C[C@@](C)(OC)[C@@H](O)[C@H](C)O2)[C@H](C)[C@@H](O[C@@H]2O[C@H](C)C[C@H](N(C)C)[C@H]2O)[C@](C)(O)C[C@@H](C)CN(CCCNC(=O)Nc2ccc3ccccc3c2)[C@H](C)[C@@H](O)[C@]1(C)O` ?
0.141

Also check `CC[C@H]1OC(=O)[C@H](C)[C@@H](O[C@H]2C[C@@](C)(OC)[C@@H](O)[C@H](C)O2)[C@H](C)[C@@H](O[C@@H]2O[C@H](C)C[C@H](N(C)C)[C@H]2O)[C@](C)(O)C[C@@H](C)CN(CCCN(CCC#N)C(=O)Nc2ccccc2C(F)(F)F)[C@H](C)[C@@H](O)[C@]1(C)O`
0.0626
